# Test system: P388 leukemia ip, CD2F1 mice, survival T/C
# assay.text: NCI In Vivo Anticancer Drug Screen. Data for tumor model P388 Leukemia (intraperitoneal) in CD2F1 (CDF1) mice
# experimental.context: endpoint: median survival time; dose: 12.5 mg/kg/injection; schedule: Q01DX005 (ip); vehicle: Klucel (hydroxypropylcellulose) (HPC); higher = longer survival
Toxic doses and inconclusive results are not listed.
property.label: T/C

In [3]: df
Out[3]:
                                   molecule       assay_value
0       CSC(=O)NC(=Nc1ccccc1)NC(=O)c1ccccc1   90 % of control
1  O=C1N2CCNc3ccccc3C(c3ccccc3)N1CC2 (centres undefined)   93 % of control
2  O=P(CCCCP(=O)(c1ccccc1)c1ccccc1)(c1ccccc1)c1ccccc1.[Cl][Sn]([Cl])([c]1ccccc1)[c]1ccccc1  115 % of control
3  CN1CCCCC1CC(O)c1ccccc1 (centres undefined)  103 % of control
4  Cc1[nH]c(N)nc(=S)c1CCCNc1ccc(C(=O)NC(CCC(=O)O)C(=O)O)cc1 (centres undefined)   99 % of control
5  Cc1nc2ccccc2[n]1[Sn]([CH3])([CH3])[n]1c(C)nc2ccccc21  118 % of control
6  COc1ccc(C2=CC3CCC(C2)N3C)cc1 (centres undefined)  110 % of control
7                  CC1S(=O)(=O)OCCOS1(=O)=O  162 % of control
8  CC1=CC(=O)c2c(O)c3c(c(O)c2C1=O)C1C(O)C(C3=O)C23C(=O)c4c(O)c(C)cc(O)c4C(O)=C2C(=O)CC(O)C13 (centres undefined)  108 % of control

----------
# System: P388 leukemia ip, CD2F1 mice, survival T/C
# assay.text: NCI In Vivo Anticancer Drug Screen. Data for tumor model P388 Leukemia (intraperitoneal) in CD2F1 (CDF1) mice
# experimental.context: endpoint: median survival time; dose: 100.0 mg/kg/injection; schedule: Q01DX009 (ip); vehicle: saline; higher = longer survival
Toxic doses and inconclusive results are not listed.
Each entry below lists one item and its recorded T/C value.
property.label: T/C

>>> print(df.to_string())
                                    compound       assay_value
 0  C=CCN1CCN(c2ccncc2S(=O)(=O)N2CCN(C)CC2)CC1   99 % of control
 1                        NC(=O)C[n+]1ccccc1  111 % of control
 2  C=C(C)C(=O)NC(C)C(=O)O (centres undefined)  100 % of control
 3            COc1cc(/C=N/n2cnnc2)cc(OC)c1OC  100 % of control
 4                                  NCC(=O)O  105 % of control
 5                CCNC1=C(C(=O)c2ccccc2)CCC1  104 % of control
 6                      [CH3][Ge]([CH3])=[O]   91 % of control
 7    O=c1oc2ccccc2n1P(=O)(N1CCOCC1)N1CCOCC1   98 % of control
 8              O=C1NCCCC1(c1ccccc1)c1ccccc1  102 % of control
 9        Cc1cc(C)n(-c2ccncc2[N+](=O)[O-])n1   97 % of control
10                        Oc1cccnc1CN1CCOCC1   93 % of control
11    Cc1ccc(NC(=O)Oc2cc(C)c(Br)c(C)c2)cc1Cl   95 % of control
12                         CC(=O)CC(=O)N(C)C   98 % of control
13    C[N+](C)(C)CC[N+](C)(C)Cc1cccc2ccccc12  107 % of control

Reference source for all entries: PubChem BioAssay AID330
